STUDY SYSTEM: AGO2 A367P (Homo sapiens, UniProt Q9UKV8 1-859, A367P;S387D;S824A;S828D;S831D;S834A)
Sequence (Q9UKV8 whole entry A367P/S387D/S824A/S828D/S831D/S834A): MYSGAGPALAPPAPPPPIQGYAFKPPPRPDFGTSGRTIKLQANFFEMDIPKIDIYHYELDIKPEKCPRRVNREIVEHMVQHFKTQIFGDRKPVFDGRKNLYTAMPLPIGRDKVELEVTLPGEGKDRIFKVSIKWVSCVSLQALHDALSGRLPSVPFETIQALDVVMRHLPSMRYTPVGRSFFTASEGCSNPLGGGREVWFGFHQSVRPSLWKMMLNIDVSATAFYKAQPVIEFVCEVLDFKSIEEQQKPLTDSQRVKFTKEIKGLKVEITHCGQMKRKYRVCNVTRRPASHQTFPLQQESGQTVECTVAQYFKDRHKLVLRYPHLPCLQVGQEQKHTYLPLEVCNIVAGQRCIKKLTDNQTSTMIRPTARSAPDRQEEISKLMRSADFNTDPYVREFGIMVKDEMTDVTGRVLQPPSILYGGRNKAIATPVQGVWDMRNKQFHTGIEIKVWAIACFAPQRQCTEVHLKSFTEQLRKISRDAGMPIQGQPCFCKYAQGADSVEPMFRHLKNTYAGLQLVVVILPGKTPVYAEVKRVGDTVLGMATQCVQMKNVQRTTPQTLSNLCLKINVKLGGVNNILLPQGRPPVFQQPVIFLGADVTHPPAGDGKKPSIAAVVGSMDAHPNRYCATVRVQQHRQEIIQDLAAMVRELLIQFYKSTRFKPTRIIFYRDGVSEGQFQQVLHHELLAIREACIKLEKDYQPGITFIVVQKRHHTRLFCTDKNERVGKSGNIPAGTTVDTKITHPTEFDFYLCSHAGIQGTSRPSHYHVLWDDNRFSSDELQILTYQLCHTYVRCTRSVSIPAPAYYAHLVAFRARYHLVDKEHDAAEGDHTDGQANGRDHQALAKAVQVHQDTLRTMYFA
PROCEDURE DETAILS: RNA Bind-n-Seq (nitrocellulose filter binding and sequencing); miR-122 guide loaded in AGO2; 60 min incubation; 30 mM Tris pH 8.0, 100 mM potassium acetate, 2 mM magnesium acetate, 0.5 mM TCEP, 0.005% NP-40, 0.01 mg/ml yeast tRNA; 3 nM AGO2-miR-122, 100 nM RNA library; 60; high values mean tight binding
COND: protein: recombinant; tags: His6 (N-terminal, pFastBac HTA)
OBSERVATION TYPE: binding signal

**Q:** Specify measured binding signal for ATGCTCCG (ssRNA, constant regions annealed to DNA blockers; guide miR-122 5' phosphate) RNA 1: GAGUUCUACAGUCCGACGAUCCCAACAUGCUCCGCACCUGGAAUUCUCGGGUGCCAA RNA 2: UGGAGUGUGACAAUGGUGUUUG DNA 1: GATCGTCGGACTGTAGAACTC DNA 2: TTGGCACCCGAGAATTCCA .
**A:** 1.45 fold enrichment over input

**Q:** Read the entry GCATTCTA (ssRNA, constant regions annealed to DNA blockers; guide miR-122 5' phosphate) RNA 1: GAGUUCUACAGUCCGACGAUCCCAACGCAUUCUACACCUGGAAUUCUCGGGUGCCAA RNA 2: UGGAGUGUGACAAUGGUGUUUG DNA 1: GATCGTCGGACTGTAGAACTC DNA 2: TTGGCACCCGAGAATTCCA and write its reported binding signal.
**A:** 0.181 fold enrichment over input

**Q:** Specify reported binding signal for the binder shown: ATGTCTTA (ssRNA, constant regions annealed to DNA blockers; guide miR-122 5' phosphate) RNA 1: GAGUUCUACAGUCCGACGAUCCCAACAUGUCUUACACCUGGAAUUCUCGGGUGCCAA RNA 2: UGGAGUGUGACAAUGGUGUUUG DNA 1: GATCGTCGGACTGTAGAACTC DNA 2: TTGGCACCCGAGAATTCCA
**A:** 0.399 fold enrichment over input

---
**Q:** Give me measured binding signal, please, for this binder: ACATCTCG (ssRNA, constant regions annealed to DNA blockers; guide miR-122 5' phosphate) RNA 1: GAGUUCUACAGUCCGACGAUCCCAACACAUCUCGCACCUGGAAUUCUCGGGUGCCAA RNA 2: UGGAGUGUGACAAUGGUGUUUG DNA 1: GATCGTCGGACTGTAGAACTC DNA 2: TTGGCACCCGAGAATTCCA
**A:** 0.134 fold enrichment over input
